Would you kindly list drug sensitivity score for each of these compounds?
Tested on: HepG2
Assay: drug sensitivity score (DSS) for viability; higher = more toxic; extreme values may be limits of the assay
Settings: 72 h
Numbers only.

Parameters: items (list). Returns: drug sensitivity score for each item.
1. CCC(=O)OCC(=O)[C@@]1(OC(=O)CC)[C@H](C)C[C@H]2[C@H]3[C@H]([C@@H](O)C[C@@]21C)[C@@]1(C)C=CC(=O)C=C1C[C@H]3Cl [alclometasone-dipropionate]
2. COc1cccc(CCc2ccccc2OCC(CN(C)C)OC(=O)CCC(=O)O)c1 (stereo unspecified) [sarpogrelate]
3. N=C(NCCCCCCNC(=N)NC(=N)Nc1ccc(Cl)cc1)NC(=N)Nc1ccc(Cl)cc1
4. CS(=O)(=O)c1ccc(Oc2cc(F)cc(C#N)c2)c2c1[C@H](O)C(F)(F)C2
5. NC(=O)c1ccc2[nH]ccc2c1
6. CC(=O)N(CC(O)CO)c1c(I)c(C(=O)NCCO)c(I)c(C(=O)NCC(O)CO)c1I (stereo unspecified)

Marked response:
[0, 0, 6.5, 0, 0.3, 0]

Would you mind giving drug sensitivity score for every compound in the list below?
1. C[C@]12CC[C@@H]3c4ccc(O)cc4C[C@@H](CCCCCCCCC[S+]([O-])CCCC(F)(F)C(F)(F)F)[C@H]3[C@@H]1CC[C@@H]2O (stereo partly specified)
2. COc1cc2c(NC3CCN(C4CCCCC4)CC3)nc(N3CCCN(C(C)C)CC3)nc2cc1OCCCN1CCCCC1
3. COc1ccc2nc(NC(=O)Nc3ccccc3)sc2c1

Marked response:
1: 0.3; 2: 1.5; 3: 3.7

Give measured drug sensitivity score for every item shown.
1. O=C1O[C@H](CO)[C@@H](O)[C@H](O)[C@H]1O
2. CC(C)Cn1cnc2c1c(=O)n(C)c(=O)n2C
3. NCC(O)c1ccc(O)cc1 (stereo unspecified)
4. O=C(O)C(=O)c1cn(Cc2ccccc2)c2ccc(-c3ccc(OC(F)(F)F)cc3)cc12
5. O=C(Nc1ccc([N+](=O)[O-])cc1O)Nc1ccccc1Br

Marked response:
[0, 0, 0, 0, 5.1]

For every listed record, write down its drug sensitivity score.
1. NC(=O)C1=CN([C@@H]2O[C@H](COP(=O)(O)OP(=O)(O)OC[C@H]3O[C@@H](n4cnc5c(N)ncnc54)[C@H](OP(=O)(O)O)[C@@H]3O)[C@@H](O)[C@H]2O)C=CC1
2. O=c1c(-c2ccc(O)cc2)coc2c([C@@H]3O[C@H](CO)[C@@H](O)[C@H](O)[C@H]3O)c(O)ccc12 [kakonein]

Marked response:
0
0
